Listed here: molecules with reported Ki for Mu-type opioid receptor (Homo sapiens, UniProt P35372).
Answers are plain numbers, in µM.

Check out these entries, answers already filled in.
{"smiles_input": "O=C(Cc1ccccc1)N1CC[C@]23c4c5ccc(O)c4O[C@H]2c2[nH]c4ccccc4c2C[C@@]3(O)[C@H]1C5", "tested_target": "Mu-type opioid receptor (Homo sapiens, UniProt P35372)", "Ki [µM]": 8.67}
{"smiles_input": "O=C(CCc1ccccc1)N1CC[C@]23c4c5ccc(O)c4O[C@H]2c2[nH]c4ccccc4c2C[C@@]3(O)[C@H]1C5", "tested_target": "Mu-type opioid receptor (Homo sapiens, UniProt P35372)", "Ki [µM]": 3.48}

Consider the additional molecule presented here.
Query: Supply recorded Ki for `O=C(CCc1ccccc1)N1CC[C@]23Cc4nc5ccccc5cc4C[C@@]2(O)[C@H]1Cc1ccc(O)cc13` here.
Reply: 1.79

----------
Field: pKi. Provide a value for each of the compounds that follow.
biological target: Delta-type opioid receptor (Homo sapiens, UniProt P41143); assay: Displacement of [3H]DPDPE from human delta opioid receptor expressed in CHO cells
Sequence (P41143 whole entry): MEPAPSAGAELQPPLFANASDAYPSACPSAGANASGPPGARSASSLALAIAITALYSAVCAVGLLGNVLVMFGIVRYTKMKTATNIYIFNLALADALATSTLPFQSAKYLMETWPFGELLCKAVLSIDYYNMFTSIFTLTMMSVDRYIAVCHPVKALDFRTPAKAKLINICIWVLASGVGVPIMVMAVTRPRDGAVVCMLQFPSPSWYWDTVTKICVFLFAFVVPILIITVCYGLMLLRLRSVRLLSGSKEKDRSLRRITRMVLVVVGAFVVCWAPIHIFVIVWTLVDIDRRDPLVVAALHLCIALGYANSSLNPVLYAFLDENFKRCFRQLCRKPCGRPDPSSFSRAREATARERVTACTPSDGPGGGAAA
Give bare numbers, as −log10 of the molar value.

Example cases with answers are listed next.
{"smiles_input": "O=C(Cc1ccccc1)N1CC[C@]23c4c5ccc(O)c4O[C@H]2c2[nH]c4ccccc4c2C[C@@]3(O)[C@H]1C5", "assay_value": 7.38}
{"smiles_input": "O=C(CCc1ccccc1)N1CC[C@]23Cc4nc5ccccc5cc4C[C@@]2(O)[C@H]1Cc1ccc(O)cc13", "assay_value": 8.38}
{"smiles_input": "O=C(CCc1ccccc1)N1CC[C@]23c4c5ccc(O)c4O[C@H]2c2[nH]c4ccccc4c2C[C@@]3(O)[C@H]1C5", "assay_value": 7.05}

Query: Give reported pKi value for `O=C(Cc1ccccc1)N1CC[C@]23Cc4nc5ccccc5cc4C[C@@]2(O)[C@H]1Cc1ccc(O)cc13`
Reply: 7.58

----------
target: Delta-type opioid receptor (Homo sapiens); test: Inverse agonist activity at human delta opioid receptor expressed in CHO cell membranes by [35S]GTPgammaS binding assay; format: functional
quantity_name: EC50 (nM)
Numbers only, in nM.

Query: Provide Delta-type opioid receptor (Homo sapiens) EC50 reading for COC1=CC=C2C[C@H]3N(C(=O)C4CC4)CC[C@]45C2C1O[C@H]4c1[nH]c2ccccc2c1C[C@@]35O (stereo partly specified) .
Reply: 322

----------
Target or system Kappa-type opioid receptor (Homo sapiens, UniProt P41145): recorded Ki listed per item.
Answers are plain numbers, in µM.

{"smiles_input": "O=C(CCc1ccccc1)N1CC[C@]23c4c5ccc(O)c4O[C@H]2c2[nH]c4ccccc4c2C[C@@]3(O)[C@H]1C5", "tested_target": "Kappa-type opioid receptor (Homo sapiens, UniProt P41145)", "quantity_name": "Ki", "assay_value": 2.15}

Read the next record carefully.
Query: Indicate the recorded Ki value for this molecule: `O=C(Cc1ccccc1)N1CC[C@]23c4c5ccc(O)c4O[C@H]2c2[nH]c4ccccc4c2C[C@@]3(O)[C@H]1C5`
Reply: 5.99

----------
Please go through the items and note down their Emax.
target: Delta-type opioid receptor (Homo sapiens); assay: Agonist activity at human delta opioid receptor expressed in CHO cell membranes by [35S]GTPgammaS binding assay relative to control; type: functional
Answers are plain numbers, in %.

Some compounds with recorded Emax:
{"smiles_input": "O=C(CCc1ccccc1)N1CC[C@]23Cc4nc5ccccc5cc4C[C@@]2(O)[C@H]1Cc1ccc(O)cc13", "quantity_name": "Emax", "assay_value": 123}
{"smiles_input": "O=C(CCc1ccccc1)N1CC[C@]23c4c5ccc(O)c4O[C@H]2c2[nH]c4ccccc4c2C[C@@]3(O)[C@H]1C5", "quantity_name": "Emax", "assay_value": 88.5}

// each listed compound needs a value for Emax
1. O=C(Cc1ccccc1)N1CC[C@]23Cc4nc5ccccc5cc4C[C@@]2(O)[C@H]1Cc1ccc(O)cc13
2. O=C(Cc1ccccc1)N1CC[C@]23c4c5ccc(O)c4O[C@H]2c2[nH]c4ccccc4c2C[C@@]3(O)[C@H]1C5

Reply:
125
97.5
